Test: NCI Yeast Anticancer Drug Screen. Data for the sgs1 mgt1 strain (AID 161)
Conditions: S. cerevisiae sgs1 mgt1 strain, at 50.0 µM
Compounds without any hit were thinned out: in the full panel of roughly 79,000, 15% have a hit. Calls of active or inactive are those of the source. Cut-off read from the data, not from the text of the source: active = growth inhibition above about 70%; inactive = the rest.
// classify into active, inactive

Use these answered entries as a reference point.
{"Compound": "C[n+]1cccc(C(=O)c2ccccc2)c1", "Discrete label": "inactive"}
{"Compound": "Oc1nc(-c2ccccc2)sc1-c1ccccc1", "Discrete label": "inactive"}
{"Compound": "CCc1ccc(NC(=S)NC(=O)C(C)Oc2ccccc2)cc1 (stereo unspecified)", "Discrete label": "inactive"}
{"Compound": "O=C(Nc1cc([N+](=O)[O-])ccc1Cl)c1ccc(F)cc1", "Discrete label": "inactive"}
{"Compound": "COc1ccc(Cl)cc1NC(=O)Nc1cc(C)ccc1Cl", "Discrete label": "inactive"}

Request: Which outcome was assigned to COc1ccc(N=C(C)C2C(=O)c3ccccc3C2=O)cc1 in this test?
Response: inactive

Request: Recorded test outcome, item COc1cc(/C=N/NC(=O)Cc2cccc3ccccc23)ccc1O
Response: inactive

Request: Recorded test call requested for O=C1C2C(C(=O)N1c1cccc3ccccc13)C1(Cl)C(Cl)=C(Cl)C2(Cl)C1(Cl)Cl (stereo unspecified)
Response: active

Request: How was CCC[C@H](C)[C@H]1NC(=O)[C@@H](NC(=O)[C@@H](CC(C)C)N(C)C(=O)C2CCCN2C(=O)[C@H](C)O)[C@@H](C)OC(=O)[C@H](CC(C)C)N(C)C(=O)[C@@H]2CCCN2C(=O)[C@H](CC(C)C)NC(=O)[C@@H](C)C(=O)[C@H](C(C)C)OC(=O)C[C@@H]1O (stereo partly specified) classified in this test?
Response: inactive

Request: Could you check what this test reported for Cc1[nH]c(=O)nc(N(CCO)/N=C/c2ccc(Cl)cc2)c1C(=O)Nc1ccc(Cl)cc1 ?
Response: inactive

Request: Check the results log: what was the call for CC(=O)n1[nH]c(=O)c2ncccc2c1=O ?
Response: inactive

Request: Which outcome was entered for the compound CC(=O)Oc1ccc(C(=O)c2ccc(OC(C)=O)cc2)cc1 in this test?
Response: inactive

====

Assay: NCI Yeast Anticancer Drug Screen. Data for the bub3 strain (AID 167)
Conditions: S. cerevisiae bub3 mutant strain, at 50.0 µM, active compounds read high
Experimental: Growth inhibition of yeast strains with defined genetic alterations is measured as a screen for potential anti-cancer activity. Selected strains with alterations in DNA damage repair or cell cycle control were exposed to compounds and growth inhibition was measured relative to vehicle treated controls. The strain used in this assay is bub3
About 79,000 compounds went through this panel and 15% of them were active in at least one assay; those are over-represented in the sample as a whole.
So basically every entry gets a class from its growth inhibition, ranges being low end: < -20%; middle: ≥ -20% and < 10%; high end: ≥ 10%

Below, 3 compounds whose answers are already recorded.
{"Compound": "COc1ccc(C(=O)c2ccc(OC)c3ccccc23)c2ccccc12", "Discrete label": "middle"}
{"Compound": "O=C1C(c2cnc3c(n2)CCC=C3)=C(O)c2ccccc21", "Discrete label": "middle"}
{"Compound": "Nc1ccc(N(C(=O)c2ccccc2)C(=O)c2ccccc2)c(-c2ccccc2)c1", "Discrete label": "high end"}

Request: Assign a category based on measured growth inhibition for C[n+]1ccccc1C#N and give only the class name.
Response: low end

Request: Band of C[C@]12CC[C@@H]3c4ccc(OS(C)(=O)=O)cc4CC[C@H]3[C@@H]1CC[C@@H]2OS(C)(=O)=O ?
Response: high end

Request: Record Br[C@H]1CC2CCC1C2 (some centres not stated) — which class?
Response: middle

Request: Hi, small favor: classify CSc1nc(C)cc(Nc2ccc(O)c(CN3CCOCC3)c2)n1 by its growth inhibition when you get a moment.
Response: low end

Request: Tag the class for CCc1n[nH]c(=S)n1/N=C/c1ccc(-c2ccc([N+](=O)[O-])cc2)o1
Response: middle

Request: # bin lookup: classify COC(=O)C(C(=O)C(=O)NC1=C(Cl)C(=O)c2ccccc2C1=O)c1csc(-n2nc(-c3ccccc3)cc2-c2ccccc2)n1 (configuration not stated) by its growth inhibition
Response: high end

Request: Where would CSc1nc2c(N)nc(N)nc2nc1C land among the classes by reported growth inhibition?
Response: middle

Request: Into which category would you place COC(=O)c1cc2c3c(ccc2[nH]1)N(C(=O)c1cc2c4c(ccc2[nH]1)N(C(=O)c1cc2c5c(ccc2[nH]1)N(C(N)=O)CC5)CC4)CC3 ?
Response: high end
